Each recorded value in this set is attributed to paper PMC8179049.

- Target Or System: human AspH (His6-AspH315-758) (Homo sapiens)
- Construct: N-Terminally His6-tagged human AspH315-758 (His6-AspH315-758) was produced in Escherichia coli BL21 (DE3); made in house; host or cells: Escherichia coli BL21 (DE3), pET-28a(+) vector
- Sequence (Q12797 315-758): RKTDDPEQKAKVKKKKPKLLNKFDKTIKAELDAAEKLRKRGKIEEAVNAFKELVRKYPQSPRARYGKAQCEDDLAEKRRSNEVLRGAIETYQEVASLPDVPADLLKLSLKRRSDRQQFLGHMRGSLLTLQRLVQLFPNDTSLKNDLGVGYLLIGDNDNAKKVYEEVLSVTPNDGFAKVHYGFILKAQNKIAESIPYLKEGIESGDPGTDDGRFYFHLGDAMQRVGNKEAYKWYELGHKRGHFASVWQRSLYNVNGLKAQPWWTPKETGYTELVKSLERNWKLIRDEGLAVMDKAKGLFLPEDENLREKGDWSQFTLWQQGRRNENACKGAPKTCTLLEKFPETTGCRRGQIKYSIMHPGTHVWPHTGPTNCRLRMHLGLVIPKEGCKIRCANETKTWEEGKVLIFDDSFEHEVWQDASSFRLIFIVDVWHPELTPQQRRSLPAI
- Procedure Summary: SPE-MS AspH inhibition assay
- Type: biochemical
- Condition Parameters: IC50 at 600 μM 2OG (ESI Table S1), assay concentration of 600 μM (0.6 mM) 2OG; mean ± SD, n = 3
pIC50: −log10 of the molar value.
Measurement Name: pIC50

- Compound: "CCC(CC(=O)O)C(=O)C(=O)O (centres unmarked)"
  Measurement Name: "pIC50"
  Experimental Value: 4.26
- Compound: "CC(C)CC(CC(=O)C(=O)O)C(=O)O (centres unmarked)"
  Measurement Name: "pIC50"
  Experimental Value: 4.57
